Just for reference, patent EP1382597A2 is where these values come from.

tested_target: ER (Homo sapiens)
Construct: expressed in transfected cells; host or cells: CV-1 cells, transient transfection, with MTV-ERE5-LUC reporter
Sequence (P03372 whole entry): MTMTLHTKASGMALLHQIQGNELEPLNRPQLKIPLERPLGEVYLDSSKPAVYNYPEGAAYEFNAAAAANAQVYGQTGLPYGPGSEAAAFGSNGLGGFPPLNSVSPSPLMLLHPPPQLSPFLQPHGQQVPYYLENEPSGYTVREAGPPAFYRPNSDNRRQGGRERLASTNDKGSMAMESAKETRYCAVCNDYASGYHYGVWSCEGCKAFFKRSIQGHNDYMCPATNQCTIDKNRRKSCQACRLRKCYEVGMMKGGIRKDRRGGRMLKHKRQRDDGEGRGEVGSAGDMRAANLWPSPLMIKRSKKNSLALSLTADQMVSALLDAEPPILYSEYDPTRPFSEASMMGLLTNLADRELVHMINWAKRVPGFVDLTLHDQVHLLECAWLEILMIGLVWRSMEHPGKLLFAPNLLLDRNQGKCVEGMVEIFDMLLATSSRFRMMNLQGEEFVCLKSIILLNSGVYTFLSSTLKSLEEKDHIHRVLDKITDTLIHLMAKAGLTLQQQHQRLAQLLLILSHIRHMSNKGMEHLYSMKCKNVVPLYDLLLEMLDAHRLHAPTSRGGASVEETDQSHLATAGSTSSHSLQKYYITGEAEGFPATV
method: Co-transfection assay, ER agonist activity
Assay type: cell-based
pEC50: −log10 of the molar value.
Can you tell me pEC50 for the items I'm about to list?

Can you look up the measured pEC50 of CC1=CC(C)(C)Nc2ccc3c(c21)C(c1ccc(Cl)cc1)Oc1ccccc1-3 (racemic) for me?
< 5.00

Same read-out for CC(C)(O)C(=O)Nc1ccc([N+](=O)[O-])c(C(F)(F)F)c1 ?
< 5.00

Continue with C=C1CC(C)(C)Nc2ccc3c(c21)C(c1cccc(F)c1)Oc1ccccc1-3 (racemic)
< 5.00
